# Test system: velvetleaf
# method-description: Test A postemergence
# Format: in vivo, Abutilon theophrasti
# reported-conditions: 500 g ai/ha, 0 to 100 scale, 0 no effect, 100 complete control
# Text: […]
Quick rule for you: Plant response rating, Velvetleaf under 60 gets y, anything else gets n.

Please review the entries below; each comes with its answer.
# molecule, answer-label
rows = [
    ("CC(C)(C)c1ccn(-c2ccccc2Oc2ncc(Cl)cn2)n1 [Compound 29]", "y"),
    ("Clc1cnc(Oc2ccccc2-n2cnc(Br)n2)nc1 [Compound 46]", "y"),
]

Enquiry: Strictly below 60: is that where Plant response rating, Velvetleaf of Cc1cnn(-c2ccccc2Oc2ncc(Cl)cn2)c1 [Compound 23] sits?
Return: n

Enquiry: Same again, this time with Cc1ccn(-c2ccccc2Oc2ncc(Cl)cn2)n1 [Compound 36]
Return: n

Cited source: patent US9695155B2
